SYSTEM_NAME: T1, ROR1 extracellular domain Fc fusion:Fc heterodimer, monomer (human)
T1 construct: Heterodimer of one ROR1 ECD-Fc chain and one Fc chain; also called ROR1 monomer; hROR1 monomeric ECD-Fc fusion protein; not shown: Fc part; Fc alone
METHOD_SUMMARY: SPR, immobilised ROR1 monomer, antibody injected, 1:1 model
Each entry below carries its reported kon.
Give the number; M⁻¹ s⁻¹ is assumed, so skip it.

binder="Antibody 601-70 (antibody, V domains shown) VH: EVQLVQSGAELKKPGSSVRVSCKTSGGSFKTHGISWVRQAPGQGLEWMGWINPNSGGALYVDNFQGRATMTRDTSINTAYMELRSLSSDDTAVYYCARGMADLIDVFDIWGQGTMVTVSS VL: TQPALTQPASVSGSPGQSITISCTGTSSDFGDYDYVSWYQQHPGKAPKLMIYDVSDRPSGVSNRFSGSKSGNTASLTISGLQAEDEADYFCSSFTTSSTLVFGGGTKLTVL" experimental_result=3.6e+06

Sure, the documented kon for Antibody 601-103 (antibody, V domains shown) VH: EVQLVQSGGDLVQPGGSLRLSCAASGFTFSSYSMNWVRQAPGKGLEWVSSISSSSSYIYYADSVKGRFTISRDNAKNSLYLQMNSLRAEDTAVYYCARGLGGWTHDAFDIWGQGTTVTVSS VL: QSVLTQPASVSGSPGQSITISCTGTTSDVGGYNYVSWYQQHPGKAPKLMIYDVSKRPSGVSNRFSGSKSGNTASLTISGLQAEDEADYYCSSYTSSSTDVFGTGTKLTVL is 120000
